Values from PubChem BioAssay (NCI)

test system: SN12C renal; test: NCI-60 one-dose screen, 48 h (100 = growth as untreated, 0 = no growth, -100 = all killed); conditions: 10 µM unless noted
About 83,000 compounds went through this panel and 20% of them were active in at least one assay; those are over-represented in the sample as a whole.
Tag: TRUE if measured growth is not below 70%, FALSE if it is.

- CCCCCCCCCCn1cc[n+](C)c1: FALSE
- Cc1cc(-c2ccccc2)c(C)n1Cc1ccc(Cl)cc1: FALSE
- Cc1cc2c(c(=O)o1)C(c1ccc(OC(=O)N3CCOCC3)cc1)C(C#N)=C(N)O2 (configuration not stated): TRUE
- O=C(Cc1n[nH]c(=O)c2ccccc12)OCc1c(Cl)cccc1Cl: TRUE
- Clc1nc2ccccc2nc1CI: FALSE
- COc1c(NC[C@H]2OC(O)[C@H](O)[C@@H](O)[C@@H]2O)c(=O)c1=O (some centres not stated): TRUE
- CC/C=C\C/C=C\C[C@H]1C/C=C2/C(=O)C=C[C@H]2C/C=C\CCC(=O)O1: FALSE
- CN1C(=O)[C@H]2c3c1cccc3[C@@]13NC(=O)O[C@H]1[C@H](CCC3(C)C)C2(C)C: TRUE
- COC(=O)CC/C(C)=N\Nc1ccc([N+](=O)[O-])cc1: TRUE
- O=c1[nH]c(CN2CCN(c3ccccc3F)CC2)nc2sc3c(c12)CCC3: TRUE
- COc1ccc(/C=C2\CCCC3=C2NC(C)=NC3c2ccc(OC)c(OC)c2)cc1OC (configuration not stated): FALSE
- O=C(O)c1ccc(-n2cc(CNc3ccc(C(F)(F)F)cc3)c(-c3ccccc3)n2)cc1: TRUE
- Cc1ccc(S(=O)(=O)OCC(=O)Nc2ccc(C(=O)O)c(O)c2)cc1: TRUE
- CCN1C(=O)N(CC)C2Nn3c(s/c(=C\c4cccc(F)c4)c3=O)=NC21 (configuration not stated): TRUE
- COc1cccc2cc(-c3cc4ccccc4[nH]3)c(=NC(=O)c3ccc(Cl)cc3)oc12: TRUE
- c1ccn2nnnc2c1: TRUE
- C=C1C(=O)O[C@H]2[C@H]1CC/C(Cn1cc(-c3ccccc3C(F)(F)F)nn1)=C\CC[C@@]1(C)O[C@@H]21: FALSE
- CCN(Cc1ccccc1)c1ccc(SC#N)cc1: TRUE
- Nc1nc(N)c2nc(CNc3ccc(C(=O)CC(CCC(=O)O)C(=O)O)cc3)cnc2n1 (configuration not stated): FALSE
- COc1ccc(NC(=S)/N=c2\oc3c(OC)cccc3cc2-c2cc3ccccc3[nH]2)cc1: TRUE
- COc1cc(/C=C/C(=O)c2ccc(NC(=O)CN3CCN(c4cc5c(cc4F)c(=O)c(C(=O)O)cn5C4CC4)CC3)cc2)cc(OC)c1OC: FALSE
- CC(C)(C)OC(=O)N[C@@H](Cc1ccccc1)C(=O)N(Cc1ccccc1)C1(C(=O)NCc2ccccc2)CCN(Cc2ccccc2)CC1: FALSE
- CC(C)C(C(=O)CCN(C)C)c1ccc(Cl)cc1 (configuration not stated): TRUE
- COc1ccc(C2CC(c3cccs3)=NN2c2ccc(S(=O)(=O)NC(=O)NCc3cccc(OC)c3)cc2)cc1 (configuration not stated): TRUE
- CC(=O)Nc1ccc(S(=O)(=O)N2C(=O)CCC2C(=O)Nc2ccc(Br)cc2)cc1 (configuration not stated): FALSE
